Value source: PubChem BioAssay (NCI)

Test system: T-47D breast
Test Details: NCI-60 one-dose screen, 48 h (100 = growth as untreated, 0 = no growth, -100 = all killed)
Measurement Parameters: 10 µM unless noted
The panel holds about 83,000 compounds, 20% with a hit somewhere; the sample as a whole holds those more often.

| Compound | growth / % |
| --- | --- |
| Cc1ccnc2c(OCc3ccccc3)cccc12 | 72.8 |
| CC(C)(C)c1[nH]nc2c1C(c1cc3ccccc3[nH]c1=O)Nc1cc(C(=O)OCc3ccccc3)ccc1N2 (centres undefined) | 36.7 |
| CCN(CC)C(=O)CCCCCn1c2ccccc2c2c3c(c4c5ccccc5[nH]c4c21)C(=O)N(O)C3=O | 28.2 |
| CCN1CCN(C(=O)[C@]23CC[C@@H](C)[C@H](C)[C@H]2C2=CC[C@@H]4[C@@]5(C)C/C(=C/c6cccc(OC)c6OC)C(=O)C(C)(C)[C@@H]5CC[C@@]4(C)[C@]2(C)CC3)CC1 | 18.2 |
| CCC(=O)c1c(C)[nH]c(C)c1C | 104 |
| Cc1cc(N(CCCNc2ccnc3cc(Cl)ccc23)Cc2ccco2)nc(N2CCOCC2)n1 | 88.5 |
| O=C(/C=C/c1cccc2ccccc12)Nc1ncc(Cc2ccccc2)s1 | 16 |
| COc1cc(-c2cc3cc(O)ccc3oc2=O)cc(OC)c1OC | 75.7 |
| CCCCN1CCCCn2c1nc1c2c(=O)n(C)c(=O)n1C | 107 |

* * *

System: MOLT-4 leukemia
Test Details: NCI-60 one-dose screen, 48 h
Measurement Parameters: 10 µM unless noted
Method: Growth inhibition of the MOLT-4 human tumor cell line is measured as a screen for anti-cancer activity. Cells are grown in 96 well plates and exposed to the test compound for 48 hours. Compounds are tested at a single concentration, which is 10^-5 M for most compounds. The reported endpoint is percent growth (GI% or GIPRCNT), where numbers from 0 - 100% represent growth inhibition, and numbers from -100% - 0 represent cell death. For example, a value of 40 represents 60% growth inhibition. […]
About 83,000 compounds went through this panel and 20% of them were active in at least one assay; those are over-represented in the sample as a whole. The source made the active and inactive calls. How the source made its calls: active means growth percent below 10; inactive means the rest.
Classes used: YES = active, NO = inactive

| Compound | Category |
| --- | --- |
| O=C1c2ccccc2NC(c2cn(-c3ccccc3)nc2-c2cccs2)N1Cc1ccccc1 (stereo unspecified) | NO |
| CCCCC[C@H]1C/C=C2/C(=O)C(Cl)=C[C@@H]2C/C=C\CCCC(=O)O[C@@H](CCCCC)C/C=C2/C(=O)C(Cl)=C[C@@H]2C/C=C\CCCC(=O)O1 | YES |
| CN(CSc1ccc(Cl)cc1)c1ccc(CSc2ccc(Cl)cc2)cc1 | YES |
| Nc1ncnc2nc(Br)[nH]c12 | NO |
| O=[N+]([O-])c1cccc(/C=N\Nc2ccccc2)c1 | NO |
| COC(=O)[C@]12CC[C@@H](C)[C@H](C)[C@@H]1C1=CC[C@@H]3[C@@](C)(CC#N)C4=C(C[C@@]3(C)[C@]1(C)CC2)OC[C@]4(C)C=O | YES |
| C=C(C)[C@@H]1CC[C@]2(C=O)CC[C@]3(C)[C@H](CC[C@@H]4[C@@]5(C)C/C(=C/c6cccnc6)C(=O)C(C)(C)[C@@H]5CC[C@]43C)[C@@H]12 | NO |
| COc1cc(NC(C)CN(CC(C)C)C(C)C)c2ncccc2c1 (stereo unspecified) | NO |
| COc1cc(/C=C2\C(=O)N(CC(O)COc3cc(O)c4c(=O)cc(-c5ccccc5)oc4c3)c3ccccc32)cc(OC)c1O (stereo unspecified) | NO |
| Oc1cccc2ccc(N/N=C/c3cc(CN4CCCCC4)c(O)c4ncccc34)nc12 | YES |
| CCN1CCN(C(=O)[C@]23CCC(C)(C)C[C@@H]2C2=CC[C@@H]4[C@@]5(C)C/C(=C/c6cccnc6)C(=O)C(C)(C)[C@@H]5CC[C@@]4(C)[C@]2(C)CC3)CC1 | YES |
| Cc1cc(N(CCCNc2ccnc3cc(Cl)ccc23)Cc2ccco2)nc(N2CCOCC2)n1 | NO |
| O=C1c2cccc3cccc(c23)C(=O)N1CC#Cc1ccc2c3c(cccc13)C(=O)N(CCO)C2=O | NO |
| CC(C)=CCC[C@](C)(O)[C@H]1CC[C@]2(C)[C@@H]1CC[C@@H]1[C@@]3(C)C/C(=C/c4ccc(Br)cc4)C(=O)C(C)(C)[C@@H]3CC[C@]12C | NO |
| O=C(Nc1ccc(/C=C2\SC(=O)N(Cc3ccc(OC(F)(F)F)cc3)C2=O)cc1)c1ccc(Cl)c([N+](=O)[O-])c1 | NO |
| C=C1CC[C@@H](C(=O)OC)Cc2nc(C)ccc21 | NO |

* * *

Test system: NCI-H322M lung
Test Details: NCI-60 one-dose screen, 48 h
Measurement Parameters: 10 µM unless noted
This is part of a sample that, as a whole, favours compounds with a hit. Of some 83,000 tested, about 20% had one in any assay. Calls of active or inactive are those of the source. The calls were made as follows: active = growth percent below 10; inactive = the rest.
Classes used: active, inactive

| Compound | Category |
| --- | --- |
| Cc1csc(-c2ccc3c(c2)COC3(CCCN(C)C)c2ccc(F)cc2)c1 (stereo unspecified) | inactive |
| C=C1C(=O)O[C@H]2[C@H]1CC/C(COC(=O)NCc1c[nH]c3ccccc13)=C\CC[C@@]1(C)O[C@@H]21 | inactive |
| CC(C)=CCC[C@](C)(O)[C@H]1CC[C@]2(C)[C@@H]1CC[C@@H]1[C@@]3(C)C/C(=C/c4cccc([N+](=O)[O-])c4)C(=O)C(C)(C)[C@@H]3CC[C@]12C | inactive |
| COc1ccc2nc(-c3cc(-c4cc(OC)c(OC)c(OC)c4)n[nH]3)[nH]c2c1 | inactive |
| N#CC1c2ccccc2-c2ccccc2N1C(=O)c1ccccc1 (stereo unspecified) | inactive |
| COc1ccc2c(c1)c(-c1nc(-c3c[nH]c4ncccc34)cs1)cn2CCCN1CCCCC1 | inactive |
| CC1(C)CC[C@]2(CO)CC[C@]3(C)C(=CC[C@@H]4[C@@]5(C)CC[C@H](NCO)C(C)(C)[C@@H]5CC[C@]43C)[C@@H]2C1 | active |
| Cc1nn2c(-c3nc4cc(Cl)c(Cl)cc4[nH]3)c(-c3ccc(F)cc3)nc2s1 | active |
| CC[C@H](CC[C@@H](C)[C@H]1CC[C@H]2[C@@H]3/C(=C/c4cccnc4)C(=O)C4=CC(=O)CC[C@]4(C)[C@H]3CC[C@]12C)C(C)C | inactive |
| Cc1ccc2[nH]cc(-c3nc(-c4cn(C)c5ncccc45)cs3)c2c1 | inactive |
| COC(=O)[C@]12CC[C@@H](C(=O)/C=C/c3cccnc3)[C@@H]1[C@H]1CC[C@@H]3[C@@]4(C)C/C(=C/c5cccnc5)C(=O)C(C)(C)[C@@H]4CC[C@@]3(C)[C@]1(C)CC2 | active |
| COc1cccc(-c2nn(-c3ccccc3)cc2-c2ccnc(NCCCNS(=O)(=O)c3ccc(Cl)cc3)c2)c1 | inactive |
| COc1cc2c(cc1OC)C(=O)/C(=C/c1cc(-c3ccc4c(c3)OCO4)n[nH]1)C2 | active |
| COC(=O)[C@]12CC[C@@H](C(C)=O)[C@@H]1[C@H]1CC[C@@H]3[C@@]4(C)C/C(=C/c5cccnc5)C(=O)C(C)(C)[C@@H]4CC[C@@]3(C)[C@]1(C)CC2 | inactive |
| Cc1ccc(-c2ccc(Nc3ccccc3)nn2)cc1S(N)(=O)=O | inactive |
| CC1(C)C(=O)/C(=C\c2ccccn2)C[C@]2(C)[C@H]3CC[C@@H]4[C@@H](C(=O)/C=C/c5ccccn5)CC[C@@]4(C)[C@]3(C)CC[C@@H]12 | inactive |

* * *

Tested on: NCI-H23 lung
Test Details: NCI-60 one-dose screen, 48 h (100 = growth as untreated, 0 = no growth, -100 = all killed)
Measurement Parameters: 10 µM unless noted
Experimental: Growth inhibition of the NCI-H23 human Non-Small Cell Lung tumor cell line is measured as a screen for anti-cancer activity. Cells are grown in 96 well plates and exposed to the test compound for 48 hours. Compounds are tested at a single concentration, which is 10^-5 M for most compounds. The reported endpoint is percent growth (GI% or GIPRCNT), where numbers from 0 - 100% represent growth inhibition, and numbers from -100% - 0 represent cell death. […]
About 83,000 compounds went through this panel and 20% of them were active in at least one assay; those are over-represented in the sample as a whole.
Use 80% as the dividing line for growth, with the line itself on the rule met side and lower values as rule not met.

| Compound | Category |
| --- | --- |
| CCN1CCN(C(=O)[C@]23CCC(C)(C)C[C@@H]2C2=CC[C@@H]4[C@@]5(C)C/C(=C/c6ccncc6)C(=O)C(C)(C)[C@@H]5CC[C@@]4(C)[C@]2(C)CC3)CC1 | rule not met |
| Cn1cc(-c2csc(-c3cn(CCCN4CCCCC4)c4ccccc34)n2)c2cccnc21 | rule met |
| CCCCCC1CCCCN1C(=O)OCC (stereo unspecified) | rule met |
| COc1ccc(-c2nc3ncccn3c2-c2nc3ccc(Br)cc3[nH]2)cc1 | rule met |
| COC(=O)[C@]12CC[C@@H](C)[C@H](C)[C@@H]1C1=CC[C@@H]3[C@@]4(C)C=C(O)C(=O)C(C)=C4CC[C@@]3(C)[C@]1(C)CC2 | rule not met |
| COc1ccc(C(=O)/C=C/c2cc(-c3cc(OC)c(OC)c(OC)c3)n[nH]2)cc1OC | rule not met |
